System: Staphylococcus aureus
Experimental Protocol: Minimum inhibitory concentration against Staphylococcus aureus was determined
Type: functional
# Lookup of reported log10 of MIC keyed by entry
Note: values are log10 of MIC expressed in µg/mL.

Some solved cases for reference:
For record C=CC(C)(O)CC/C=C(\C)CCC=C(C)C (stereo not given) the listed log10 of MIC is 1.70

For record CCCCCCCCCCCO the listed log10 of MIC is 1.40

For record CCCCCCCCO the listed log10 of MIC is 2.90

Further cases:
For record CCCCCCCCCCCCO the listed log10 of MIC is 0.80

For record CCCCCCCCCCO the listed log10 of MIC is 1.70

For record CC(C)=CCC/C(C)=C/CCC(C)O (stereo not given) the listed log10 of MIC is 1.70

For record CC(C)=CCC/C(C)=C/CO the listed log10 of MIC is 2.90

For record CC(C)=CCC/C(C)=C/CC/C(C)=C/CO the listed log10 of MIC is 0.80

For record CCCCCCCCCO the listed log10 of MIC is 2.30
